Numbers sourced from the supplement of paper PMC10567573.

B1: MTMR15 (parent)
chain: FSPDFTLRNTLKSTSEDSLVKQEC

- Variants of: B1
- Test description: protein stability index of a GFP-peptide fusion (GPS, HEK-293T) (PSI 1-6); higher = more stable;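 also: lentivirally expressed fusions sorted by FACS into six bins by GFP to DsRed ratio, PSI derived from sequencing read proportions per bin multiplied by bin number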
- Condition info: c terminus: a fixed tail appended
Quantity kind: protein stability index
Give bare numbers.

Observe how each entry below is paired with its result.
polymer_sequence=FSPDFTLRNTLKSTSTDSLVKQEC test_result=1.57
polymer_sequence=FSPPFTLRNTLKSTSEDSLVKQEC test_result=4
polymer_sequence=FSPDFTLRNTLKSTAEDSLVKQEC test_result=1.64
polymer_sequence=FSPDFTLRNTYKSTSEDSLVKQEC test_result=1.75
polymer_sequence=FSPDFTLRNTLKSTSEDSLVKQET test_result=1.98

Hi! Can you tell me protein stability index for each of these variants?
1. FSPDFDLRNTLKSTSEDSLVKQEC
2. FSPDFTLRNTLKSISEDSLVKQEC
3. FIPDFTLRNTLKSTSEDSLVKQEC

2.7
1.62
1.92
